# measurement_description: Inhibition of PHK lambda 2
# Parameters: species or system Homo sapiens
pKi: −log10 of the molar value.
measured_attribute: pKi

[ask] Quick one: pKi for N#Cc1ncc2nc1OCCCCOc1cc(NCc3cncs3)c(Cl)cc1NC(=O)N2 ?
[reply] < 5.31

----------
# system: TAK1/TAB1 (Homo sapiens)
# Sequence (Q15750 whole entry): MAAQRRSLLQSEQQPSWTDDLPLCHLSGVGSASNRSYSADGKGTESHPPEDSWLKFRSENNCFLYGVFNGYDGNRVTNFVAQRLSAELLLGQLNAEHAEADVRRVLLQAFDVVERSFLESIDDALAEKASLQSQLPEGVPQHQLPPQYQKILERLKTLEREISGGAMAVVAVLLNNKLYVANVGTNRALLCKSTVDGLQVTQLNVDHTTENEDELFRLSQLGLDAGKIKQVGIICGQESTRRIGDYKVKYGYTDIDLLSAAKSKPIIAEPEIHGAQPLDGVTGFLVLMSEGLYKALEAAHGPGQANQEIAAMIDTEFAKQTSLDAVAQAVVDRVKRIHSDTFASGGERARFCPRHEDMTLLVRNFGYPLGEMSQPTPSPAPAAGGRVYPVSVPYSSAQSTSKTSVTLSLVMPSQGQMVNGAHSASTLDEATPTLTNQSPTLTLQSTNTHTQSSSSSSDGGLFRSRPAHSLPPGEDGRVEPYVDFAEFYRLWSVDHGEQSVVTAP
# Sequence (O43318 whole entry): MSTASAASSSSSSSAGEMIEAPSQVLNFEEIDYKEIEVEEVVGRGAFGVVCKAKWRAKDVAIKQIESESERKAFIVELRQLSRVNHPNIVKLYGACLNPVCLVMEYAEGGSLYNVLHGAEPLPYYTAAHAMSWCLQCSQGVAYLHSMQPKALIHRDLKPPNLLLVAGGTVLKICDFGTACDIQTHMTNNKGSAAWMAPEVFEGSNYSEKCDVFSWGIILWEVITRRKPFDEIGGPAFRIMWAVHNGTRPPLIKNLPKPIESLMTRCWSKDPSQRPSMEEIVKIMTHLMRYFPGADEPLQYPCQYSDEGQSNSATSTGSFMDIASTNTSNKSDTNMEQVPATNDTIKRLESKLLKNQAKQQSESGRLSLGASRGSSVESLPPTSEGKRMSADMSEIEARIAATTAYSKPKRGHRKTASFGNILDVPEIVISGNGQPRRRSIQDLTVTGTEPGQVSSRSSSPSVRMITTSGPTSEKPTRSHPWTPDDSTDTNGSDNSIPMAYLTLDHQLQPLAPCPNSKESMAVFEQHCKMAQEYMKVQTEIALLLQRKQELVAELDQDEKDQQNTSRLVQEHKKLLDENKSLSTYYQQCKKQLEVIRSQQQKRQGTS
measured_attribute: Ki

[ask] Quick one: Ki for N#Cc1ncc2nc1OCCCCOc1cc(NCc3cncs3)c(Cl)cc1NC(=O)N2 ?
[reply] > 1.61 µM

----------
# system: Serine/threonine-protein kinase WNK2 (Homo sapiens)
# Sequence (Q9Y3S1 whole entry): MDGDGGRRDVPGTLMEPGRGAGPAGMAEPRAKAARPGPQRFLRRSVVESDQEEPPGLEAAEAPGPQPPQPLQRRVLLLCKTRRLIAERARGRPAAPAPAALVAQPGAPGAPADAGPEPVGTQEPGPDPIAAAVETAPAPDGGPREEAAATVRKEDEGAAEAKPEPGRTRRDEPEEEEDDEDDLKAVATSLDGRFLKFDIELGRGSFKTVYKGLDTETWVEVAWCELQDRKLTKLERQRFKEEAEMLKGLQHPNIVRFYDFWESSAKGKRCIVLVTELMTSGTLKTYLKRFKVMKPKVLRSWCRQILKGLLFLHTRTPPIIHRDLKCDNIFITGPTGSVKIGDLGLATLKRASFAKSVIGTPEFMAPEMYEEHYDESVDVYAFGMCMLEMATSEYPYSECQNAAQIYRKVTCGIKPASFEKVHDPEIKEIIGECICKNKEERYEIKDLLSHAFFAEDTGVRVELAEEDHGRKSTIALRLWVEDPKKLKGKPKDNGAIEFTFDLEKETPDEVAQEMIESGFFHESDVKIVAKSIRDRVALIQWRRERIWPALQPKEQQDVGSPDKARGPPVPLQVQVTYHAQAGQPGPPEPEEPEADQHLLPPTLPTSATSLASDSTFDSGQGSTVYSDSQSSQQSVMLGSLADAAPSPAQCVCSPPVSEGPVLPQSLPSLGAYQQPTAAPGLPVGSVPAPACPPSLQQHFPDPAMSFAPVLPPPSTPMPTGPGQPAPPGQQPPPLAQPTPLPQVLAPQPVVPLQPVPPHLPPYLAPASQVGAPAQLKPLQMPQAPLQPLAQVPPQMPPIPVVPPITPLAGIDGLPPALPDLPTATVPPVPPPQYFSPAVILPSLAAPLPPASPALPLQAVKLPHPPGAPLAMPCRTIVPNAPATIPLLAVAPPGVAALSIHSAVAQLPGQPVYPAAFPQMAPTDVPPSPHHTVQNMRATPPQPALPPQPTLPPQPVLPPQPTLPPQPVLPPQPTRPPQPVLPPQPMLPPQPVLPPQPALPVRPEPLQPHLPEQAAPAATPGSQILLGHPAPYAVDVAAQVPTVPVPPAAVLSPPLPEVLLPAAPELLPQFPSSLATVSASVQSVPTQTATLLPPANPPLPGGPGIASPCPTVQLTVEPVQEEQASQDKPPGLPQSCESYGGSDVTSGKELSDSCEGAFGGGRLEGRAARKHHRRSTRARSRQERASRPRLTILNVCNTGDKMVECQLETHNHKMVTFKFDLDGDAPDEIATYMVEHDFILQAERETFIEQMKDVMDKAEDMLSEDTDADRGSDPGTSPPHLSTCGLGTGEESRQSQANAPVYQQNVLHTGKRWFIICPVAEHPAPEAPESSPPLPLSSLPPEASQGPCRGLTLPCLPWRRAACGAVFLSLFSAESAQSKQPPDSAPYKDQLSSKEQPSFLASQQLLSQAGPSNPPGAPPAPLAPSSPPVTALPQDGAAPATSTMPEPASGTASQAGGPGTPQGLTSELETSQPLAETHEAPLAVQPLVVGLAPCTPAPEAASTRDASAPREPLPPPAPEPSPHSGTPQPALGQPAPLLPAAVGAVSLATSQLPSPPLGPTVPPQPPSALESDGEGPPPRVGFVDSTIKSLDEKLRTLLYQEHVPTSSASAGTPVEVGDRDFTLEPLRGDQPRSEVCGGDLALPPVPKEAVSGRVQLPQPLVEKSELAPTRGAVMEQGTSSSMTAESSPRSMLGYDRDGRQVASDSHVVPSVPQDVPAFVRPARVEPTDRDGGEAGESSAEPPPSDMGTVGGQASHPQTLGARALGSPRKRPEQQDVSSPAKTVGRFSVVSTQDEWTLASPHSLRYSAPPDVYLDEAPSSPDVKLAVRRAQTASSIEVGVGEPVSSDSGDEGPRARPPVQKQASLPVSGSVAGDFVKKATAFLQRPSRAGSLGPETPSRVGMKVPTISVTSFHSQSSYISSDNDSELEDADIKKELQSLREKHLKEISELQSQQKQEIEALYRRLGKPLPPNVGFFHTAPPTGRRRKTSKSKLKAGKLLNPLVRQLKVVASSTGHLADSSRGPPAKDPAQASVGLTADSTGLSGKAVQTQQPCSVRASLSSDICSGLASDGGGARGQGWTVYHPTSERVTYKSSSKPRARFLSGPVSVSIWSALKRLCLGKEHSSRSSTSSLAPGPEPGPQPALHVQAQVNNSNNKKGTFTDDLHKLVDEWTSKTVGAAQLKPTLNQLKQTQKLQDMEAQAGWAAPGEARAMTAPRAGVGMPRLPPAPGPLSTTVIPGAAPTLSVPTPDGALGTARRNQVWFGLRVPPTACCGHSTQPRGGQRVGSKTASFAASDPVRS
measured_attribute: Ki

[ask] Quick one: Ki for N#Cc1ncc2nc1OCCCCOc1cc(NCc3cncs3)c(Cl)cc1NC(=O)N2 ?
[reply] > 1520 nM

----------
# system: Serine/threonine-protein kinase DCLK2 (Homo sapiens)
# Sequence (Q8N568 whole entry): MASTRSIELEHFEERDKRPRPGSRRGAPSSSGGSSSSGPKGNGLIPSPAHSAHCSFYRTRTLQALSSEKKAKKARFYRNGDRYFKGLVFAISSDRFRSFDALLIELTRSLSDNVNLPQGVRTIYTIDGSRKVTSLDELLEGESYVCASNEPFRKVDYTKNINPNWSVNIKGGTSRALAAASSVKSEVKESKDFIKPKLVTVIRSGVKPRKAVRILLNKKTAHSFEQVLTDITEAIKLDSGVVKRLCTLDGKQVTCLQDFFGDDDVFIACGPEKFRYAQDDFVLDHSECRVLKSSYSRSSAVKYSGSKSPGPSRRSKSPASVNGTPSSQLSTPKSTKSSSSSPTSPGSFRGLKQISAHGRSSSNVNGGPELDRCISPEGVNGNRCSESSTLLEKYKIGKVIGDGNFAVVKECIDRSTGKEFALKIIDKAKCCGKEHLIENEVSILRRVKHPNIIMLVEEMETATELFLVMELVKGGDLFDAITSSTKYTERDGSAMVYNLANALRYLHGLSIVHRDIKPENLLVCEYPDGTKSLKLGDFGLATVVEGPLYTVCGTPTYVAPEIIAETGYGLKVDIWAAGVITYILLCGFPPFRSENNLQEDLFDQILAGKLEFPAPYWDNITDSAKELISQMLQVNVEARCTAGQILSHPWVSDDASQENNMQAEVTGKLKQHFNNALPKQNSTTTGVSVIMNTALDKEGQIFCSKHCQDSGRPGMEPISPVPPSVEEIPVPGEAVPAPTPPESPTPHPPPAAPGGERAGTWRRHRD
pKi: −log10 of the molar value.
measured_attribute: pKi

[ask] Lab note: need pKi with Serine/threonine-protein kinase DCLK2 (Homo sapiens) for entry N#Cc1ncc2nc1OCCCCOc1cc(NCc3cncs3)c(Cl)cc1NC(=O)N2 , please look it up.
[reply] < 5.02

----------
# Test system: NCI-H1299
# measurement_description: Inhibition of doxorubicin-induced cell cycle arrest in H1299 cells at G2/M phase by FACS assay
# Format: functional, cell-based
# settings: Homo sapiens
Catalogue of molecules with associated pEC50
Friendly reminder that pEC50 comes from taking -log10 of the concentration in mol/L.

INSERT INTO assay_data (substance_smiles, system, measured_attribute, reported_value) VALUES
  ('C[C@H](N)C(=O)Nc1cc2c(cc1Cl)NC(=O)Nc1cnc(C#N)c(n1)OC/C=C\CO2', 'NCI-H1299', 'pEC50', 7.05);

Attention now shifts to the item below.
[ask] Quick one: pEC50 for N#Cc1ncc2nc1OCCCCOc1ccc(Cl)cc1NC(=O)N2 ?
[reply] 5.89

Hello, the source for this data is ChEMBL document CHEMBL1140564, in case you need it.
